Assay: Half life in dog hepatocytes at 2 uM by LC/MS/MS analysis
Details: t1/2
READOUT LABEL: half-life at 2 µM

molecule="CCCCOC(=O)[C@H](CC)NP(=O)(CO[C@@H]1C=C(F)[C@H](n2cnc3c(N)ncnc32)O1)Oc1ccccc1 (some centres not stated)" readout_label="half-life at 2 µM" value_observed="91 min"
molecule="Nc1ncnc2c1ncn2[C@@H]1O[C@H](OCP(=O)(N[C@@H](Cc2ccccc2)C(=O)OCC2CCC2)Oc2ccccc2)C=C1F (some centres not stated)" readout_label="half-life at 2 µM" value_observed="23 min"
molecule="Nc1ncnc2c1ncn2[C@@H]1O[C@H](OCP(=O)(N[C@@H](Cc2ccccc2)C(=O)OCC2CC2)Oc2ccccc2)C=C1F (some centres not stated)" readout_label="half-life at 2 µM" value_observed="17 min"
molecule="CC(C)COC(=O)[C@H](Cc1ccccc1)NP(=O)(CO[C@@H]1C=C(F)[C@H](n2cnc3c(N)ncnc32)O1)Oc1ccccc1 (some centres not stated)" readout_label="half-life at 2 µM" value_observed="28 min"
molecule="CCCCCOC(=O)[C@H](C)NP(=O)(CO[C@@H]1C=C(F)[C@H](n2cnc3c(N)ncnc32)O1)Oc1ccccc1 (some centres not stated)" readout_label="half-life at 2 µM" value_observed="57 min"
molecule="CCCCOC(=O)[C@H](C)NP(=O)(CO[C@@H]1C=C(F)[C@H](n2cnc3c(N)ncnc32)O1)Oc1ccccc1 (some centres not stated)" readout_label="half-life at 2 µM" value_observed="63 min"

From here, focus on the item given below.
Qu. Which half-life at 2 µM value is on record for CC(C)OC(=O)[C@H](C)NP(=O)(CO[C@@H]1C=C(F)[C@H](n2cnc3c(N)ncnc32)O1)Oc1ccccc1 (stereo in doubt; 18s) ?
Ans. 88 min
